Hello, the source for this data is ChEMBL document CHEMBL3885861, in case you need it.

# Species on record: Rattus norvegicus
# METHOD SUMMARY: Open TG-GATES - Regimen: Daily Repeat
# Assay type: toxicity, organism-based, Sprague-Dawley
# Parameters: regimen Daily Repeat, gender Male, age 6 weeks
# EXPERIMENTAL SETUP: in vivo, po, 0 mg/kg, […], tissue Plasma, route gavage, dose level Control, time 14 day
Record criterion met whenever GLC is at 200 mg/dL or higher; record criterion not met when lower.

Exercise: Form field: GLC at least 200 mg/dL? Entry: O=NN(CCCl)C(=O)NC1CCCCC1 [LOMUSTINE]
Key: criterion not met

Exercise: Form field: GLC at least 200 mg/dL? Entry: ClC(Cl)(Cl)Cl [CARBON TETRACHLORIDE]
Key: criterion met

Exercise: Form field: GLC at least 200 mg/dL? Entry: CCCCc1oc2ccccc2c1C(=O)c1cc(I)c(OCCN(CC)CC)c(I)c1 [AMIODARONE]
Key: criterion met

Exercise: Form field: GLC at least 200 mg/dL? Entry: OCCOCCN1CCN(C(c2ccccc2)c2ccc(Cl)cc2)CC1 (stereo not given) [HYDROXYZINE]
Key: criterion not met

* * *

# Species on record: Rattus norvegicus
# METHOD SUMMARY: Open TG-GATES - Regimen: Single
# Type: toxicity, organism-based, Sprague-Dawley
# Parameters: regimen Single, gender Male, age 6 weeks
# EXPERIMENTAL SETUP: in vivo, po, 0 mg/kg, 6 h, tissue Blood, route gavage, dose level Control
Field: PT. Provide a value for each of the molecules that follow.
The reply should be a number in s, with the unit left off.

Please fill in: PT reported for ClC(Cl)(Cl)Cl [CARBON TETRACHLORIDE] = 12.1

Please fill in: PT reported for CCC1(c2ccccc2)C(=O)NC(=O)NC1=O = 12.2

Please fill in: PT reported for CC[C@H]1[C@@H]2C[C@H]3[C@@H]4N(C)c5ccccc5[C@]45C[C@@H]([C@@H]2[C@H]5O)N3[C@@H]1O = 11.6

Please fill in: PT reported for CC(C)N(CCC(C(N)=O)(c1ccccc1)c1ccccn1)C(C)C (centres undefined) [DISOPYRAMIDE] = 15.7

* * *

Field: TG. Provide a value for each of the molecules that follow.
# Species: Rattus norvegicus
# METHOD SUMMARY: Open TG-GATES - Regimen: Single
# Type: toxicity, organism-based, Sprague-Dawley
# Set-up: regimen Single, gender Male, age 6 weeks
# EXPERIMENTAL SETUP: in vivo, po, 0 mg/kg, 6 h, tissue Plasma, route gavage, dose level Control
The reply should be a number in mg/dL, with the unit left off.

Please fill in: TG reported for CN(C)CCC=C1c2ccccc2COc2ccccc21 [DOXEPIN] = 49.2

Please fill in: TG reported for OCCOCCN1CCN(C(c2ccccc2)c2ccc(Cl)cc2)CC1 (stereo not given) [HYDROXYZINE] = 52.6

Please fill in: TG reported for CCc1oc2ccccc2c1C(=O)c1cc(Br)c(O)c(Br)c1 = 69.2

Please fill in: TG reported for CC[C@H]1[C@@H]2C[C@H]3[C@@H]4N(C)c5ccccc5[C@]45C[C@@H]([C@@H]2[C@H]5O)N3[C@@H]1O = 64.8

Please fill in: TG reported for ClC(Cl)(Cl)Cl [CARBON TETRACHLORIDE] = 61

* * *

Field: MCH. Provide a value for each of the compounds that follow.
# Organism: Rattus norvegicus
# METHOD SUMMARY: Open TG-GATES - Regimen: Single
# Assay type: toxicity, organism-based, Sprague-Dawley
# Parameters: regimen Single, gender Male, age 6 weeks
# EXPERIMENTAL SETUP: in vivo, po, 0 mg/kg, 6 h, tissue Blood, route gavage, dose level Control
Report the figure along with its unit, number first.

Please fill in: MCH reported for CCC1(c2ccccc2)C(=O)NC(=O)NC1=O = 21.4 pg

Please fill in: MCH reported for CN(C)CCC=C1c2ccccc2COc2ccccc21 [DOXEPIN] = 21.8 pg

Please fill in: MCH reported for ClC(Cl)(Cl)Cl [CARBON TETRACHLORIDE] = 22 pg

Please fill in: MCH reported for O=NN(CCCl)C(=O)NC1CCCCC1 = 22 pg

* * *

# Species: Rattus norvegicus
# METHOD SUMMARY: Open TG-GATES - Regimen: Daily Repeat
# Assay type: toxicity, organism-based, Sprague-Dawley
# Design: regimen Daily Repeat, gender Male, age 6 weeks
# EXPERIMENTAL SETUP: in vivo, po, 0 mg/kg, […], tissue Plasma, route gavage, dose level Control, time 14 day
MEASURED PROPERTY: Cl (meq/L)
The reply should be a number in meq/L, with the unit left off.

Please fill in: Cl reported for CC(C)N(CCC(C(N)=O)(c1ccccc1)c1ccccn1)C(C)C (centres undefined) [DISOPYRAMIDE] = 104.8

Please fill in: Cl reported for OCCOCCN1CCN(C(c2ccccc2)c2ccc(Cl)cc2)CC1 (centres undefined) [HYDROXYZINE] = 103.8

Please fill in: Cl reported for O=NN(CCCl)C(=O)NC1CCCCC1 = 106.8

Please fill in: Cl reported for CC1=C(CC(=O)O)c2cc(F)ccc2/C1=C\c1ccc([S+](C)[O-])cc1 (centres undefined) = 105.4

Please fill in: Cl reported for CCC1(c2ccccc2)C(=O)NC(=O)NC1=O = 105.4

Please fill in: Cl reported for CC[C@H]1[C@@H]2C[C@H]3[C@@H]4N(C)c5ccccc5[C@]45C[C@@H]([C@@H]2[C@H]5O)N3[C@@H]1O = 104.2

Please fill in: Cl reported for CN(C)C(=N)N=C(N)N = 105.2

Please fill in: Cl reported for ClC(Cl)(Cl)Cl [CARBON TETRACHLORIDE] = 103.8

Please fill in: Cl reported for CCc1oc2ccccc2c1C(=O)c1cc(Br)c(O)c(Br)c1 = 108.1

* * *

# Organism: Rattus norvegicus
# METHOD SUMMARY: Open TG-GATES - Regimen: Daily Repeat
# Type: toxicity, organism-based, Sprague-Dawley
# Parameters: regimen Daily Repeat, gender Male, age 6 weeks
# EXPERIMENTAL SETUP: in vivo, po, 0 mg/kg, […], tissue Plasma, route gavage, dose level Control, time 7 day
MEASURED PROPERTY: ALT (IU/L)
The reply should be a number in IU/L, with the unit left off.

Please fill in: ALT reported for CCCCc1oc2ccccc2c1C(=O)c1cc(I)c(OCCN(CC)CC)c(I)c1 = 34

Please fill in: ALT reported for CC1=C(CC(=O)O)c2cc(F)ccc2/C1=C\c1ccc([S+](C)[O-])cc1 (stereo unspecified) = 45.2

Please fill in: ALT reported for O=NN(CCCl)C(=O)NC1CCCCC1 = 36.6

Please fill in: ALT reported for CCc1oc2ccccc2c1C(=O)c1cc(Br)c(O)c(Br)c1 = 31.8

Please fill in: ALT reported for CN(C)CCC=C1c2ccccc2COc2ccccc21 [DOXEPIN] = 46

Please fill in: ALT reported for ClC(Cl)(Cl)Cl [CARBON TETRACHLORIDE] = 34.2

Please fill in: ALT reported for CN(C)C(=N)N=C(N)N = 43.2

Please fill in: ALT reported for CC[C@H]1[C@@H]2C[C@H]3[C@@H]4N(C)c5ccccc5[C@]45C[C@@H]([C@@H]2[C@H]5O)N3[C@@H]1O = 37.4

Please fill in: ALT reported for OCCOCCN1CCN(C(c2ccccc2)c2ccc(Cl)cc2)CC1 (stereo unspecified) [HYDROXYZINE] = 41.6

Please fill in: ALT reported for CC(C)N(CCC(C(N)=O)(c1ccccc1)c1ccccn1)C(C)C (stereo unspecified) [DISOPYRAMIDE] = 44

Please fill in: ALT reported for CCC1(c2ccccc2)C(=O)NC(=O)NC1=O = 32

* * *

# Species on record: Rattus norvegicus
# METHOD SUMMARY: Open TG-GATES - Regimen: Single
# Assay type: toxicity, organism-based, Sprague-Dawley
# Parameters: regimen Single, gender Male, age 6 weeks
# EXPERIMENTAL SETUP: in vivo, po, 0 mg/kg, 6 h, tissue Liver, route gavage, dose level Control
Field: LIVER. Provide a value for each of the molecules that follow.
The reply should be a number in g, with the unit left off.

Please fill in: LIVER reported for CCc1oc2ccccc2c1C(=O)c1cc(Br)c(O)c(Br)c1 = 9.9

Please fill in: LIVER reported for CC[C@H]1[C@@H]2C[C@H]3[C@@H]4N(C)c5ccccc5[C@]45C[C@@H]([C@@H]2[C@H]5O)N3[C@@H]1O = 8.3

Please fill in: LIVER reported for CC(C)N(CCC(C(N)=O)(c1ccccc1)c1ccccn1)C(C)C (stereo not given) [DISOPYRAMIDE] = 9.3

Please fill in: LIVER reported for CCC1(c2ccccc2)C(=O)NC(=O)NC1=O = 9.6

Please fill in: LIVER reported for ClC(Cl)(Cl)Cl [CARBON TETRACHLORIDE] = 9

Please fill in: LIVER reported for CN(C)C(=N)N=C(N)N = 8

Please fill in: LIVER reported for OCCOCCN1CCN(C(c2ccccc2)c2ccc(Cl)cc2)CC1 (stereo not given) [HYDROXYZINE] = 8.5

Please fill in: LIVER reported for CC1=C(CC(=O)O)c2cc(F)ccc2/C1=C\c1ccc([S+](C)[O-])cc1 (stereo not given) = 8

Please fill in: LIVER reported for CN(C)CCC=C1c2ccccc2COc2ccccc21 [DOXEPIN] = 8.1

Please fill in: LIVER reported for O=NN(CCCl)C(=O)NC1CCCCC1 = 9.4
